- subjectOfTest: MAP kinase-interacting serine/threonine-protein kinase 2 (Homo sapiens, UniProt Q9HBH9)
- Sequence (Q9HBH9 whole entry): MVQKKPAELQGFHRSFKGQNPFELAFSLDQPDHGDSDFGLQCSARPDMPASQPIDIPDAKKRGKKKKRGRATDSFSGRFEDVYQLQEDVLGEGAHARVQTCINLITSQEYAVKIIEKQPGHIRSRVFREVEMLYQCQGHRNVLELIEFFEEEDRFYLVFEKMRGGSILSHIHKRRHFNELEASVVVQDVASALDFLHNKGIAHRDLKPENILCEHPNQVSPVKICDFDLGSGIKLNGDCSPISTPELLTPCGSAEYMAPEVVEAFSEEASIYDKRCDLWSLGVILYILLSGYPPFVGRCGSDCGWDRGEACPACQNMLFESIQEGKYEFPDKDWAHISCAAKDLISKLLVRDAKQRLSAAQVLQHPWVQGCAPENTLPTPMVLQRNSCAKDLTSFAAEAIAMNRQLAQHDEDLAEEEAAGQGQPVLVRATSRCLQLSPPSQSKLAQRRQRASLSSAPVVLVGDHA
- measurementProtocol: Inhibition of GST-tagged MNK2 (unknown origin) expressed in Escherichia coli BL21(DE3) using 5-FAM-TATKSGSTTKNRFVV-NH 2 peptide as substrate incubated for 1 hr in presence of ATP by fluorescence polarization assay
pIC50: −log10 of the molar value.

- compound: "CC(=O)C1CCCCc2cc(O)cc(O)c2C(=O)O[C@@H](C)C/C=C\\C1=O (some centres not stated)"
  pIC50: 5.89
- compound: "COc1cc(O)c2c(c1)CCC[C@H](O)[C@H](O)C(=O)/C=C\\C[C@H](C)OC2=O"
  pIC50: 7.22

* * *

- subjectOfTest: MAP kinase-interacting serine/threonine-protein kinase 2 (Homo sapiens, UniProt Q9HBH9)
- measurementProtocol: Inhibition of GST-tagged MNK2 (unknown origin) using Ahx-IKKRKLTRRKSLKG-NH2 peptide as substrate
pIC50: −log10 of the molar value.
endpointName: pIC50

- smilesStr: "CC(=O)NC[C@@H](C)Oc1ccc2ncc(-c3cc4ccc(O)cc4o3)n2n1"
  endpointName: "pIC50"
  reading: 6.04
